Target: HCV-NS5b (Hepatitis C virus genotype 1b, UniProt Q9WMX2)
Construct: (His)6 (C); made in house; host or cells: XL-1 cells (E. coli), IPTG-inducible plasmid, nickel-NTA purification
Assay: HCV-NS5b enzyme assay (incorporation of radiolabeled UTP)
Assay type: biochemical
Details: read-out: % inh@100, enzyme inhibition at compound concentration of 100 uM
Listed below: inhibition at 100 µM values for each entry.
Quick note: give the figure in %, leave out the unit.

Recorded results for 10 compounds are shown here.
compound | valueReported
O=C(O)c1cnc2c(c1)nc(-c1ccc3nc(-c4ccccc4-c4ccc(Cl)cc4)ccc3c1)n2C1CCCCC1 | 94.3
O=C(O)c1cnc2c(c1)nc(-c1ccc3nc(-c4ccccc4Br)ccc3c1)n2C1CCCCC1 | 95.9
O=C(O)c1ccc2c(c1)nc(-c1ccc3nc(-c4cccc(O)c4)ccc3c1)n2C1CCCCC1 | 101
O=C(O)c1ccc2c(c1)nc(-c1ccc3nc(C(=O)Nc4ccc(Cl)cc4)ccc3c1)n2C1CCCCC1 | 100
COc1ccc(-c2ccc(O)cc2)c(-c2ccc3cc(-c4nc5cc(C(=O)O)ccc5n4C4CCCCC4)ccc3n2)c1 | 98.2
Cc1nc(-c2ccc(Cl)cc2)sc1-c1ccc2cc(-c3nc4cc(C(=O)O)ccc4n3C3CCCCC3)ccc2n1 | 103
O=C(O)c1ccc2c(c1)nc(-c1ccc3nc(-c4cc(Br)ccc4O)ccc3c1)n2C1CCCCC1 | 101
O=C(N[C@@H](Cc1c[nH]c2ccc(O)cc12)C(=O)O)c1ccc2c(c1)nc(-c1ccc3cc(-c4ccccc4)cnc3c1)n2C1CCCCC1 | 100
O=C(O)c1ccc2c(c1)nc(-c1ccc3nc(-c4cnn(-c5ccccc5)c4)ccc3c1)n2C1CCCCC1 | 101
O=C(O)c1ccc2c(c1)nc(-c1ccc3nc(-c4ccc(-c5ccccc5)cc4)ccc3c1)n2C1CCCCC1 | 92.5

Entry O=C(O)c1ccc2c(c1)nc(-c1ccc3nc(-c4ccc(F)cc4)c(-c4ccc(F)cc4)nc3c1)n2C1CCCCC1 , inhibition at 100 µM reported as 99.9

Entry O=C(O)c1ccc2c(c1)nc(-c1ccc3nc(-c4ccccc4Br)ccc3c1)n2C1CCCCC1 , inhibition at 100 µM reported as 98.8
